test system: T-47D breast; experiment: NCI tumour cell line growth inhibition, 48 h
assay_readout: TGI

Item CCOC(=O)CCC(NC(=O)c1ccc(Oc2nc3ccccc3nc2C(=O)OCC)cc1)C(=O)OCC (stereo not drawn) with T-47D breast - TGI?
> 100 µM

What do we get for `COc1ccc(C(=O)c2ccc(-n3c4ccccc4c4ccc5c(c43)C(=O)C=CC5=O)cc2)cc1` ?
> 100 µM

What do we get for `CNC(=O)OCCN1c2ccccc2Sc2ccccc21` ?
> 100 µM

What do we get for `CC[C@@]1(OC(=O)CN)C(=O)OCc2c1cc1n(c2=O)Cc2cc3c(N)c4c(cc3nc2-1)OCO4` ?
> 100 µM

What do we get for `COC(=O)Nc1nc2ccc(Sc3ccccc3)cc2[nH]1` ?
> 81.2 µM

What do we get for CN(C)CCC(C(=O)C(C)(C)C)c1ccccn1 (stereo not drawn) ?
> 100 µM

What do we get for N#CC(c1ccccc1)N(CCc1ccccc1)C(=O)Oc1ccccc1 (stereo not drawn) ?
> 100 µM

What do we get for CCN1C(=O)N(CC)C2C1NN=c1s/c(=C\c3ccccc3)c(=O)n12 (stereo not drawn) ?
> 100 µM

What do we get for `C[C@@H]1CN2[C@H]3[C@@H]1CC[C@]31CCC(=O)O[C@]1(C)[C@@H]1CC[C@H]3CCC=C3[C@@H]12` ?
> 70 µM

What do we get for `O=C(O)c1cc(N(Cc2ccccc2O)Cc2cc(O)ccc2O)ccc1O` ?
> 100 µM

What do we get for `Cc1ccccc1NC(=O)C(=O)Cc1cnc2ccccc2n1` ?
> 100 µM

What do we get for `NC(N)=N/N=C/c1ccc(O)c(C(=O)O)c1` ?
> 100 µM

What do we get for `CC(=O)/C=C/C1=C(c2ccsc2)c2ccccc2CC1` ?
> 100 µM

====

system: SF-268 CNS; assay: NCI tumour cell line growth inhibition, 48 h
assay_readout: TGI (µM)
Use µM as the unit, but write only the number.

Item `CC(C)(C)c1cc(C(C)(C)C)c2sc(=S)oc2c1O` with SF-268 CNS - TGI?
19.8

What do we get for `O=[N+]([O-])c1ccc(-c2ccccc2)c([As](=O)(O)O)c1` ?
39.2

What do we get for `CCCCCCCCCC(=O)CC(=O)c1c(O)cc(O)cc1O` ?
49.5

====

test system: A549 NSCLC; assay: NCI tumour cell line growth inhibition, 48 h
assay_readout: TGI

Requested field: TGI. Item: `Cc1cc2c(cc1C)[n+]([O-])c(-c1c(Cl)cccc1Cl)c(N)[n+]2[O-]`
98.9 µM

What do we get for `COc1ccccc1OC(=O)/C=C/c1ccccc1` ?
> 100 µM

What do we get for `CS[C@@]1(C(=O)Nc2ccc3[nH]nc(-c4ccc(OC(C)C)nc4)c3c2)CCN(CC(=O)N2CC=C(c3ccc(-c4ncn(C)n4)cc3)CC2)C1` ?
> 100 µM

What do we get for COc1cccc2c1C(=O)c1c(O)c3c(c(O)c1C2=O)C[C@@](O)(/C(C)=N/NC(=O)c1ccc(Cl)c(Cl)c1)C[C@@H]3OC1CC(N)C(O)C(C)O1 (some centres not stated) ?
2.68 µM

What do we get for COc1ccc(C2C3=C(COC3=O)N(CCO)c3cc4c(cc32)OCCO4)cc1OC (configuration not stated) ?
> 50 µM

What do we get for O=C1CCC(=O)C(C(=O)CCC(=O)Nc2cccc(Cl)c2)C1 (configuration not stated) ?
> 100 µM

What do we get for `ClCC1(CCl)COC1` ?
> 100 µM

What do we get for `Cn1c2c(cc(-c3ccccc3)c1=O)COc1ccccc1-2` ?
> 100 µM

What do we get for `C[N+](C)(Cc1ccc(NC(=O)CCCC(=O)ON2C(=O)CCC2=O)cc1)c1ccccc1` ?
2.08 µM

What do we get for `c1cnc2c(c1)Nc1cnncc1S2` ?
> 100 µM

What do we get for C=C1C(=O)OC2CC3(C)OC3C3OC3C3=CC(OC3=O)C12 (configuration not stated) ?
46.8 µM

What do we get for `Cc1cc(=O)[nH]c(CNC(=O)Cc2ccccc2)n1` ?
> 100 µM

What do we get for `CC(C)CNc1nc(N=[N+]=[N-])nc(NCC(C)C)n1` ?
> 10 µM

What do we get for `C/C(=N\Nc1cccc(Cl)n1)c1ccccn1` ?
> 100 µM

What do we get for COc1nc2c(c(=O)n1C)NC(C(O)C(O)CO)C=N2 (configuration not stated) ?
> 10 µM

What do we get for CC1=NN(c2ccccc2)C(=O)C1N=Nc1ccc(Br)c(C)c1 (configuration not stated) ?
> 100 µM

What do we get for `CCc1oc2ccc(OC)c3c2c1C=CC=C3` ?
> 100 µM

What do we get for CC1(C)C(=O)C2(C#N)CCC1C2 (configuration not stated) ?
> 100 µM

What do we get for `CC(=O)NNc1nc(C)c(C(/C=C/c2ccc(NC(C)=O)cc2)=N/NS(=O)(=O)c2ccc(C)cc2)s1` ?
> 100 µM

What do we get for C[C@]12CCCC(=O)C1C[C@H](C(=O)O)CC2 (some centres not stated) ?
> 100 µM

What do we get for `CN(CC#N)C(=O)Cc1ccc([N+](=O)[O-])cc1` ?
> 10 µM

What do we get for `CS(=O)(=O)c1nc(Cl)c(Cl)c(C#N)c1Cl` ?
40.4 µM

What do we get for Cc1cc(-c2nc3cc(F)ccc3s2)ccc1NC(=O)C(C)N (configuration not stated) ?
7.72 µM

What do we get for `COc1cccc(/C=C2\C(=O)N(C(=O)Cc3ccccc3)N=C2C)c1` ?
> 100 µM

What do we get for `CCOC(=O)c1cn2c([nH]c3ccccc32)c(C#N)c1=O` ?
> 100 µM

What do we get for `CS(=O)(=O)OCc1c(O)c2c(c(O)c1COS(C)(=O)=O)C(=O)C=CC2=O` ?
> 100 µM

What do we get for `COc1cccc(-c2cc(=O)c3cccnc3[nH]2)c1` ?
> 42.7 µM

What do we get for CC(C)Cc1cccc(C(C)C)c1NC(=O)CCC(=O)N/N=C1\C(=N/NC(=O)CCC(=O)Nc2c(C(C)C)cccc2C(C)C)C(c2ccc3c(c2)OCO3)Oc2ccccc21 (configuration not stated) ?
> 100 µM

What do we get for `CO[C@H](c1ccccc1)[C@H](C)N(C)c1ccc2ccccc2c1C1=NC(C)(C)CO1` ?
35.2 µM

What do we get for `COC(=O)c1ccc(NCc2cc(O)ccc2O)cc1O` ?
30.4 µM

What do we get for `O=c1cc(-c2ccccc2Cl)[nH]c2cc3c(cc12)OCO3` ?
> 16.7 µM

What do we get for `C[N+]1=c2c3cccc4cccc(c(=O)n2CCC1)c43` ?
96.8 µM

====

Consider the following molecules; for each one, report its GI50.
tested on: SW-620 colon; experiment: NCI tumour cell line growth inhibition, 48 h

Requested field: GI50. Item: `N#CC(C#N)=Cc1ccc(-c2ccc(-c3nc4ccccc4o3)cc2)o1`
20.5 µM

What do we get for `CON` ?
> 100 µM

What do we get for CC(=O)OCC(=O)C1(O)C(C)CC2C3C=C(C)C4=Cc5c(cnn5-c5ccccc5)CC4(C)C3C(O)CC21C (stereo not drawn) ?
1.7 µM

====

system: HCT-116 colon; experiment: NCI tumour cell line growth inhibition, 48 h; in the data active = GI50 below about 0.43 µM; inactive = the rest
The categories you may choose from are active, inactive

For `CNCCOc1nc2c3cnccc3cc(-c3cc(OC)c(OC)c(OC)c3)c2c2ccncc12` , what call appears in the results of this test?
active

What do we get for `C[C@@H]1CN2[C@H]3[C@@H]1CC[C@]31CCC(=O)O[C@]1(C)[C@@H]1CC[C@H]3CCC=C3[C@@H]12` ?
inactive

What do we get for `O=[N+]([O-])c1ccc(-c2ccccc2)c([As](=O)(O)O)c1` ?
inactive

What do we get for C[C@@H](Oc1cc(-c2cnn(C3CC4(CCCNC4)C3)c2)cnc1N)c1c(Cl)ccc(F)c1Cl (some centres undefined) ?
inactive

====

test system: RXF-631 renal; test: NCI tumour cell line growth inhibition, 48 h
Consider the following compounds; for each one, report its TGI.

Requested field: TGI. Item: `CO[C@@]12CC(=O)/C(=C(O)\C=C\c3ccccc3)C(=O)[C@]1(OC)Cc1ccccc1O2`
> 100 µM

What do we get for CC1=NN(c2ccccc2)C(=O)C1N=Nc1ccc(Br)c(C)c1 (stereo not drawn) ?
> 100 µM

What do we get for `CS(=O)(=O)OCc1c(O)c2c(c(O)c1COS(C)(=O)=O)C(=O)C=CC2=O` ?
> 100 µM

====

test system: MDA-MB-435; assay: NCI tumour cell line growth inhibition, 48 h
assay_readout: log10 of TGI (log10 of the value in µM)
// do not treat as linear: log10 of TGI, unit µM

Requested field: log10 of TGI. Item: `Brc1ccc(Br)nn1`
0.55

What do we get for CSc1ccc(C2=NN(C(=O)c3ccc(N)cc3)C(c3ccc(F)cc3)C2)cc1 (stereo unspecified) ?
1.37

What do we get for `C=C=[CH][Sn]([c]1ccccc1)([c]1ccccc1)[c]1ccccc1` ?
0.43

What do we get for `COc1cc(NCc2ccc3n2-c2ccccc2OC3)cc(OC)c1OC` ?
1.53

What do we get for `CCCCCc1c(C)[nH]c(/C=c2\[nH]/c(=C3/C=c4ccccc4=N3)cc2OC)c1C` ?
0.06
